These measurements were taken from ChEMBL document CHEMBL1153668.

- System: Human rhinovirus sp.
- test description: Antirhinoviral activity against Human Rhinovirus R30
- Assay type: functional
In this section, each of the compounds is paired with its reported MIC.
Field format: number, assumed µM, no unit text.

>>> meas_value("Cc1cc(CCCCCOc2c(C)cc(-c3nnn(C)n3)cc2C)on1")
0.11

Report MIC under test system Human rhinovirus sp. for Cc1cc(-c2nnn(C)n2)cc(C)c1OCCCCCc1cccnc1 .
0.17

Report MIC under test system Human rhinovirus sp. for Cc1cc(-c2nnn(C)n2)cc(C)c1OCCCCCc1ccncc1 .
0.36

Report MIC under test system Human rhinovirus sp. for Cc1cc(-c2nnn(C)n2)cc(C)c1OCCCCCc1ccccn1 .
0.25
